All values here come from ChEMBL document CHEMBL1134430.

Organism: Mus musculus
assayText: Hemolytic ability to hemolyze ICR mouse RBCs in microtiter red blood cell hemolysis assay
Type: functional
Design: concentration or dose not given beside the values
property: Hemolysis
Please answer using the number first and the unit second.

Sample answers from the record:
Which measured Hemolysis value corresponds to CCCCCCCCCCCCC[C@@H]1CC(=O)N[C@H]([C@@H](C)O)C(=O)N[C@H](C)C(=O)N[C@@H](Cc2ccc(O)cc2)C(=O)N[C@@H](C(C)C)C(=O)N2C[C@H](O)C[C@H]2C(=O)N[C@H]([C@@H](C)O)C(=O)N[C@@H]([C@@H](C)O)C(=O)N2CC[C@H](O)[C@H]2C(=O)N[C@@H]([C@H](O)CC(N)=O)C(=O)NCC(=O)N[C@H]([C@@H](C)O)C(=O)N[C@@H](CCCNC(=O)CO)C(=O)O1 ?
9%

Which measured Hemolysis value corresponds to CCCCCCCCCCCCC[C@@H]1CC(=O)N[C@H]([C@@H](C)O)C(=O)N[C@H](C)C(=O)N[C@@H](Cc2ccc(O)cc2)C(=O)N[C@@H](C(C)C)C(=O)N2C[C@H](O)C[C@H]2C(=O)N[C@H]([C@@H](C)O)C(=O)N[C@@H]([C@@H](C)O)C(=O)N2CC[C@H](O)[C@H]2C(=O)N[C@@H]([C@H](O)CC(N)=O)C(=O)NCC(=O)N[C@H]([C@@H](C)O)C(=O)N[C@@H](CCCNC(=O)CNC)C(=O)O1.Cl ?
54%

Further cases:
Which measured Hemolysis value corresponds to CCCCCCCCCCCCC[C@@H]1CC(=O)N[C@H]([C@@H](C)O)C(=O)N[C@H](C)C(=O)N[C@@H](Cc2ccc(O)cc2)C(=O)N[C@@H](C(C)C)C(=O)N2C[C@H](O)C[C@H]2C(=O)N[C@H]([C@@H](C)O)C(=O)N[C@@H]([C@@H](C)O)C(=O)N2CC[C@H](O)[C@H]2C(=O)N[C@@H]([C@H](O)CC(N)=O)C(=O)NCC(=O)N[C@H]([C@@H](C)O)C(=O)N[C@@H](CCCN)C(=O)O1.Cl ?
100%

Which measured Hemolysis value corresponds to CCCCCCCCCCCCC[C@@H]1CC(=O)N[C@H]([C@@H](C)O)C(=O)N[C@H](C)C(=O)N[C@@H](Cc2ccc(O)cc2)C(=O)N[C@@H](C(C)C)C(=O)N2C[C@H](O)C[C@H]2C(=O)N[C@H]([C@@H](C)O)C(=O)N[C@@H]([C@@H](C)O)C(=O)N2CC[C@H](O)[C@H]2C(=O)N[C@@H]([C@H](O)CC(N)=O)C(=O)NCC(=O)N[C@H]([C@@H](C)O)C(=O)N[C@@H](CCCNC(=O)CCCN)C(=O)O1.Cl ?
30%

Which measured Hemolysis value corresponds to CCCCCCCCCCCCC[C@@H]1CC(=O)N[C@H]([C@@H](C)O)C(=O)N[C@H](C)C(=O)N[C@@H](Cc2ccc(O)cc2)C(=O)N[C@@H](C(C)C)C(=O)N2C[C@H](O)C[C@H]2C(=O)N[C@H]([C@@H](C)O)C(=O)N[C@@H]([C@@H](C)O)C(=O)N2CC[C@H](O)[C@H]2C(=O)N[C@@H]([C@H](O)CC(N)=O)C(=O)NCC(=O)N[C@H]([C@@H](C)O)C(=O)N[C@@H](CCCNC(=O)CCCCCN)C(=O)O1.Cl ?
14%
